The origin of these recorded values is patent US20260176336A1.

- TARGET_OR_SYSTEM: T1, cynomolgus recombinant LTBR fused on human Fc (SinoBiological, cat. #90101-C02H) (cynomolgus (Macaca fascicularis), UniProt P36941 31-227 (human entry))
- T1 construct: bought protein
- T1 sequence (P36941 other isoform, or with tags, fused parts or gaps C02H C02H limits assumed): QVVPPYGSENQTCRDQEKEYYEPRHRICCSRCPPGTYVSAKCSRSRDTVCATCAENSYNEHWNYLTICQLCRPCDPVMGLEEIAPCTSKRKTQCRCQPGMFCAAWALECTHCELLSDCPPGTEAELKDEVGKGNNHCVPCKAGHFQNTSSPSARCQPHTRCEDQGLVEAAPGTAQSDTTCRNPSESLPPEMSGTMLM
- PROCEDURE_SUMMARY: SPR (Biacore T200), LTBR-Fc on CM5 chip, periplasmic extract as analyte
In this section, each of the binders is paired with its reported koff.
MEASUREMENT_LABEL: koff (s⁻¹)

BINDER | UNIT_ABBREV | ENDPOINT_VALUE
Clone 1.3 (VHH, not shown: small tags and cut ends, monovalent anti-LTBR VHH; also called 1.3 (parental clone for 1.8)) VHH: EVQLVESGGGLVQPGGSLRLSCAASGRTFTNYRMAWFRQAPGKEREAVAAINWNGGGTYYADSVKGRFTISRDNAKNTVYLQMNSLRPEDTAVYYCAADSTGWGSYFDYWGQGTLVTVSS | s⁻¹ | 0.0031
Clone 1.1 (VHH, not shown: small tags and cut ends, monovalent anti-LTBR VHH; also called 1.1 (parental clone for 1.7)) VHH: EVQLVESGGGLVQPGGSLRLSCAASGRFFGIYDMYWYRQPPGKQRELVAISTSGGHTNYADSVKGRFTISRDNAKNTVYLQMNSLRPEDTAVYYCNIQRVDAPGMYWGQGTLVTV | s⁻¹ | 0.0014
Clone 1.4 (VHH, not shown: small tags and cut ends, monovalent anti-LTBR VHH; also called 1.4 (parental clone for 1.6)) VHH: EVQLVESGGGLVQPGGSLRLSCKASGTTFSDRAFGWYRQAPGKQRELVATISTAGLTWYDVSVKGRFIISRDNPENTVYLQMNSLRPEDTAVYYCNTFRGNWGQGTLVTVSS | s⁻¹ | 0.00097
Clone 1.2 (VHH, not shown: small tags and cut ends, monovalent anti-LTBR VHH; also called 1.2 (parental clone for 1.5)) VHH: EVQLVESGGGLVQPGGSLRLSCAASGSSIFSFEIMAWYRQAPGKQRELVAVINKGGEANYPDSVEGRFTISRDNAKNTVYLQMNSLRPEDTAVYYCNADAVPHGSYWGQGTLVTVSS | s⁻¹ | 0.0026
